Target: T1, human TGFβ3 (human, UniProt P10600 301-412)
T1 sequence: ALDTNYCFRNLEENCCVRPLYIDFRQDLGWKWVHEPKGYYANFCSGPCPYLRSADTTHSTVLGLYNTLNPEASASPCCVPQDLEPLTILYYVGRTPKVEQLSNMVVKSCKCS
Assay: Biacore off-rate vs wt GC1008, 50 nM
Item-by-item account of kd var/kd wt
Answer with a bare number; do not write a unit.

- binder: "N32G (antibody, V domains shown, GC1008 IgG4 variant) VH: QVQLVQSGAEVKKPGSSVKVSCKASGYTFSSGVISWVRQAPGQGLEWMGGVIPIVDIANYAQRFKGRVTITADESTSTTYMELSSLRSEDTAVYYCASTLGLVLDAMDYWGQGTLVTVSS VL: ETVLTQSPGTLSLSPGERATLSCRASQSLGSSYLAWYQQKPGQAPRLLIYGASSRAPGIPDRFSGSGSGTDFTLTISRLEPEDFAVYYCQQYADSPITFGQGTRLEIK"
  measurement type: "kd var/kd wt"
  val: 1.6
- binder: "S30G (antibody, V domains shown, GC1008 IgG4 variant) VH: QVQLVQSGAEVKKPGSSVKVSCKASGYTFGSNVISWVRQAPGQGLEWMGGVIPIVDIANYAQRFKGRVTITADESTSTTYMELSSLRSEDTAVYYCASTLGLVLDAMDYWGQGTLVTVSS VL: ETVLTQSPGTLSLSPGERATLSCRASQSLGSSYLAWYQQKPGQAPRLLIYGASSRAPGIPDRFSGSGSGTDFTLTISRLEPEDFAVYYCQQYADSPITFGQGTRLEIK"
  measurement type: "kd var/kd wt"
  val: 0.9

// below: kd var/kd wt requested for another binder
# kd var/kd wt lookup, item S30I (antibody, V domains shown, GC1008 IgG4 variant) VH: QVQLVQSGAEVKKPGSSVKVSCKASGYTFISNVISWVRQAPGQGLEWMGGVIPIVDIANYAQRFKGRVTITADESTSTTYMELSSLRSEDTAVYYCASTLGLVLDAMDYWGQGTLVTVSS VL: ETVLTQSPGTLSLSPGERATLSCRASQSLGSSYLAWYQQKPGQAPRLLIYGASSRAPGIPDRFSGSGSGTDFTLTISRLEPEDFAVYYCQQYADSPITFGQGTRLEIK 1.1
